Assay: Pulmonary retention in isolated perfused rat lung
Type: in vitro ADME
Conditions: rat, lung homogenate, other: via the cannulated pulmonary artery, mimicking IV, 3 mg/kg, pH 7.4, recovery dose (%) lung, IV-mimicking route, PAH lungs, 2 h, fasudil 3 mg/kg
endpoint_label: recovery at 2 h (%)
Enter your answer as a number in %; do not include the unit.

Form field: reported recovery at 2 h of O=S(=O)(c1cccc2cnccc12)N1CCCNCC1 [plain fasudil, fasudil]
49.6

* * *

Experiment: Pulmonary retention in isolated perfused rat lung
Format: in vitro ADME
Conditions: rat, perfusate, other: via the cannulated pulmonary artery, mimicking IV, 3 mg/kg, pH 7.4, recovery dose (%) perfusate, IV-mimicking route, PAH lungs, 2 h, fasudil 3 mg/kg
endpoint_label: recovery at 2 h (%)
Enter your answer as a number in %; do not include the unit.

Form field: reported recovery at 2 h of O=S(=O)(c1cccc2cnccc12)N1CCCNCC1
39.1

* * *

Test: Pulmonary retention in isolated perfused rat lung
Assay type: in vitro ADME
Details: rat, IPRL tubes (circuitry), other: intratracheal (IT) via the tracheal cannula, 3 mg/kg, pH 7.4, recovery dose (%) IPRL tubes, IT route, PAH lungs, 2 h; by subtraction from dose
endpoint_label: recovery at 2 h
Include the unit after the number when you answer.

Form field: reported recovery at 2 h of O=S(=O)(c1cccc2cnccc12)N1CCCNCC1
16.6%

* * *

Test: in vivo
Conditions: male, Sprague-Dawley, rat, iv, 3 mg/kg
endpoint_label: AUC(0-inf) (ng·h/mL)
Enter your answer as a number in ng·h/mL; do not include the unit.

Form field: reported AUC(0-inf) of O=S(=O)(c1cccc2cnccc12)N1CCCNCC1
5970

* * *

Assay: in vivo
Conditions: male, Sprague-Dawley, rat, inhaled or intranasal, 3 mg/kg
endpoint_label: Cmax (ng/mL)
Enter your answer as a number in ng/mL; do not include the unit.

Form field: reported Cmax of O=S(=O)(c1cccc2cnccc12)N1CCCNCC1 [plain fasudil, fasudil]
3040

* * *

Test: Pulmonary retention in isolated perfused rat lung
Format: in vitro ADME
Settings: rat, lung homogenate, other: intratracheal (IT) via the tracheal cannula, 3 mg/kg, pH 7.4, recovery dose (%) lung, IT route, Sham lungs, 2 h, fasudil 3 mg/kg
endpoint_label: recovery at 2 h (%)
Enter your answer as a number in %; do not include the unit.

Form field: reported recovery at 2 h of O=S(=O)(c1cccc2cnccc12)N1CCCNCC1
71.8

* * *

Experiment: Pulmonary retention in isolated perfused rat lung
Type: in vitro ADME
Settings: rat, perfusate, other: intratracheal (IT) via the tracheal cannula, 3 mg/kg, pH 7.4, recovery dose (%) perfusate, IT route, Sham lungs, 2 h, fasudil 3 mg/kg
endpoint_label: recovery at 2 h
Include the unit after the number when you answer.

Form field: reported recovery at 2 h of O=S(=O)(c1cccc2cnccc12)N1CCCNCC1
20.8%

* * *

Assay: Pulmonary retention in isolated perfused rat lung
Assay type: in vitro ADME
Conditions: rat, perfusate, other: via the cannulated pulmonary artery, mimicking IV, 3 mg/kg, pH 7.4, recovery dose (%) perfusate, IV-mimicking route, Sham lungs, 2 h, fasudil 3 mg/kg
endpoint_label: recovery at 2 h (%)
Enter your answer as a number in %; do not include the unit.

Form field: reported recovery at 2 h of O=S(=O)(c1cccc2cnccc12)N1CCCNCC1
56.5

* * *

Assay: in vivo
Conditions: male, Sprague-Dawley, rat, 3 mg/kg
endpoint_label: AUC(0-inf) (ng·h/mL)
Enter your answer as a number in ng·h/mL; do not include the unit.

Form field: reported AUC(0-inf) of O=S(=O)(c1cccc2cnccc12)N1CCCNCC1 [plain fasudil, fasudil]
5970

Attribution: paper PMC7035787
